The reported measurements were obtained from ChEMBL document CHEMBL1629671.

- assayRemarks: Antifungal activity against Rhizomucor pusillus after 24 hrs by microdilution method
- Type: functional
metricName: MIC (µg/mL)

CN(C/C=C/C#CC(C)(C)C)Cc1cccc2ccccc12 [TERBINAFINE] : 0.22
C[C@@H](c1nc(-c2ccc(C#N)cc2)cs1)[C@](O)(Cn1cncn1)c1ccc(F)cc1F [RAVUCONAZOLE] : 0.66
C[C@@H]1[C@H](O)[C@@H](C)/C=C/C=C/C=C/C=C/C=C/C=C/C=C/[C@H](O[C@@H]2O[C@H](C)[C@@H](O)[C@H](N)[C@@H]2O)C[C@@H]2O[C@](O)(C[C@@H](O)C[C@@H](O)[C@H](O)CC[C@@H](O)C[C@@H](O)CC(=O)O[C@H]1C)C[C@H](O)[C@H]2C(=O)O [AMPHOTERICIN B] : 0.05
CC[C@@H]([C@H](C)O)n1ncn(-c2ccc(N3CCN(c4ccc(OC[C@@H]5CO[C@@](Cn6cncn6)(c6ccc(F)cc6F)C5)cc4)CC3)cc2)c1=O [POSACONAZOLE] : 0.16
CCC(C)n1ncn(-c2ccc(N3CCN(c4ccc(OCC5COC(Cn6cncn6)(c6ccc(Cl)cc6Cl)O5)cc4)CC3)cc2)c1=O (stereo unspecified) [ITRACONAZOLE] : 0.29
C[C@@H](c1ncncc1F)[C@](O)(Cn1cncn1)c1ccc(F)cc1F [VORICONAZOLE] : 5.28
